Measured pIC50, listed per entry.
- Study System: T1, purified human αvβ3 integrin protein (human, UniProt P06756 31-1048; P05106 27-788)
- T1 construct: Bought heterodimer; also called ABI; purified αvβ3 integrin
- T1 sequence (P06756 31-1048, form in doubt, chain 1 of 2): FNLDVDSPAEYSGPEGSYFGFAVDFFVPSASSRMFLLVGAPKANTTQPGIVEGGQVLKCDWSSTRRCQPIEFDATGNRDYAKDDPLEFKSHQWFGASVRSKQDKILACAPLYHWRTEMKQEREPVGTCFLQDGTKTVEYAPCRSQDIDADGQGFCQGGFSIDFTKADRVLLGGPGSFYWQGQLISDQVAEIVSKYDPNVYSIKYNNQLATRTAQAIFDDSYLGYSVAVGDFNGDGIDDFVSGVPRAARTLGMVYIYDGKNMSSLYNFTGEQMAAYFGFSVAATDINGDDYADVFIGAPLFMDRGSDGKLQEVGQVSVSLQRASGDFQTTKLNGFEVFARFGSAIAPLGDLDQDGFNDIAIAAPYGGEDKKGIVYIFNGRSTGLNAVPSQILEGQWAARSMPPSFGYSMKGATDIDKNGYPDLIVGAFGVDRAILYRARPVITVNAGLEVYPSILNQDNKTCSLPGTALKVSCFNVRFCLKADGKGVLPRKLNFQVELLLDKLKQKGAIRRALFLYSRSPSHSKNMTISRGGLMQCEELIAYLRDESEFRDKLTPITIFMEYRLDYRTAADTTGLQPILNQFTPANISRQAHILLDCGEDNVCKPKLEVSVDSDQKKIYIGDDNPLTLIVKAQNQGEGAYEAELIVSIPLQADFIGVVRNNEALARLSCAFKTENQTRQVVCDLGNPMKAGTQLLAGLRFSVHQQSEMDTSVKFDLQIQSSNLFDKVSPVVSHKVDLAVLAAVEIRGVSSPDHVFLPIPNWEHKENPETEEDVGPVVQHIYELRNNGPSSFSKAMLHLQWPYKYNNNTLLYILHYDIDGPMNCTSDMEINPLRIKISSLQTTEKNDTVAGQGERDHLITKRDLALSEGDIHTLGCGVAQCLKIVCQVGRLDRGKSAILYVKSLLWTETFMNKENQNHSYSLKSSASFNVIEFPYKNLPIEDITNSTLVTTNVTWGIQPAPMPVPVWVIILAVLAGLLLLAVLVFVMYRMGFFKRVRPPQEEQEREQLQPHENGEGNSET
- T1 sequence (P05106 27-788, form in doubt, chain 2 of 2): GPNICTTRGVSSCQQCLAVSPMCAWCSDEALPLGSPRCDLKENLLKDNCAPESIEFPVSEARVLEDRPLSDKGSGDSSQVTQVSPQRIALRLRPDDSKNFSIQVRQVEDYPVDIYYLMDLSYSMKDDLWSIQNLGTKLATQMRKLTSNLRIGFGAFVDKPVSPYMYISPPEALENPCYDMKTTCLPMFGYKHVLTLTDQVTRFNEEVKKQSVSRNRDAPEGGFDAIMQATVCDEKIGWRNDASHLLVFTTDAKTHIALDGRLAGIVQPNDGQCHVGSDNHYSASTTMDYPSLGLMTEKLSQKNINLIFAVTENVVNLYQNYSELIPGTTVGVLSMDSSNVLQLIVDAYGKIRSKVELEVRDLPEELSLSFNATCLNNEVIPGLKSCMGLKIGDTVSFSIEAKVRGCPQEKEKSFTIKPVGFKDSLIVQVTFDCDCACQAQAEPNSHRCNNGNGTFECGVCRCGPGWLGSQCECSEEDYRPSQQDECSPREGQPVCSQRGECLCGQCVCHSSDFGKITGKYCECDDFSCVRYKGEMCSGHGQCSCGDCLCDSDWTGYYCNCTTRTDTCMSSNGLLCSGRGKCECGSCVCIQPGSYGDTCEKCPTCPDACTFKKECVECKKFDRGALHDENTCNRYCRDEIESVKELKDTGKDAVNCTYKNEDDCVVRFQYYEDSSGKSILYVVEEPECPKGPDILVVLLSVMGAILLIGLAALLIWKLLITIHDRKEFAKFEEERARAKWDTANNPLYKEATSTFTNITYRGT
- Measurement Protocol: competition with 125I-echistatin on purified human αvβ3 integrin, filter plate;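 note: test ligands incubated two hours at room temperature with the integrin, bound radioactivity retained on filters measured by gamma counting, IC50 obtained through nonlinear regression fitting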
Bridges are numbered along the chain shown (N, C = ends). Primed or numbered codes have the meaning given here. [ ]: non-standard residue; d: D form. Cypate′ = NIR carbocyanine dye; Ahx = NCCCCCC(=O)O
Value format note: pIC50 is -log10 of concentration (mol/L); just state the number.

// query Return reported pIC50. Input binder: {Cypate′}-KRGD[dF][Ahx]-NH2 [Cypate-Lys-Arg-Gly-Asp-DPhe-EAhx-NH2]
// result 5.52

// query Provide one value: measured pIC50 of RGD[dF]D[Ahx]K-OH (lactam N-5; also: cyclo Arg1-Asp5: which Asp5 carboxyl (side chain or α) closes ring not given here) [Cyclo(Arg-Gly-Asp-DPhe-Asp)-EAhx-Lys-OH]
// result 5.71

// query Give the reported value of pIC50 for this record: GRDSPK (HELM PEPTIDE1{[CC1(C)C(/C=C/C=C/C=C/C=C2/N(CCC(=O)[*:2])c3ccc4ccccc4c3C2(C)C)=[N+](CCC(=O)O)c2ccc3ccccc3c21].G.R.D.S.P.K}$$$$V2.0; SMILES CC1(C)C(/C=C/C=C/C=C/C=C2/N(CCC(=O)NCC(=O)N[C@@H](CCCNC(=N)N)C(=O)N[C@@H](CC(=O)O)C(=O)N[C@@H](CO)C(=O)N3CCC[C@H]3C(=O)N[C@@H](CCCCN)C(=O)O)c3ccc4ccccc4c3C2(C)C)=[N+](CCC(=O)O)c2ccc3ccccc3c21, also called Cypate-GRDSPK; Cypate-GRDSPK-OH) [Cypate-Gly-Arg-Asp-Ser-Pro-Lys-OH]
// result 5.15

// query Entry RGD[dF]DK-NH2 (lactam N-5; also: cyclo Arg1-Asp5: which Asp5 carboxyl (side chain or α) closes ring not given here) [Cyclo(Arg-Gly-Asp-DPhe-Asp)-Lys-NH2] needs its pIC50 filled in; supply it.
// result 5.76
